Recorded values, source PubChem BioAssay (NCI).

test system: SNB-75 CNS; assay: NCI tumour cell line growth inhibition, 48 h
Endpoint: TGI (µM)
Could you give me the number in µM? Just the number is fine.

Sample records with TGI:
>>> print(df.to_string())
                                   compound  endpoint  value_measured
0    O=c1ccc2nc(C(F)(F)F)nn(-c3ccccc3)c-2c1       TGI            26.4
1  CCOC(=O)/C=C\c1c(Cl)n(-c2ccccc2)c(=O)n(-c2ccccc2)c1=O       TGI            29.2

I would be grateful if you could share the reported TGI for NCCc1ccc2oc3cc(=O)c4ccccc4c-3nc2c1 .
6.06

// repeat for COc1cc2c(oc(=O)c3cc(C)cc(OC)c32)c2c(C3OC(C)C(O)C(C)(O)C3O)ccc(O)c12 (stereo unspecified) and report
1.46

// repeat for Cc1nn(CCO)c(C)c1N=[N+]([O-])c1c(C)nn(CCO)c1C and report
25.9

----------
system: NCI/ADR-RES ovarian; assay: NCI tumour cell line growth inhibition, 48 h; in the data active = GI50 below about 0.43 µM; inactive = the rest
Outcomes you can answer with include only these: active, inactive

Name the outcome recorded for CN(C)CCCn1c2c(c3ccc(-c4ccn[nH]4)cc3c1=O)C(=O)c1ccccc1-2 in the assay.
inactive

// repeat for COC(=O)C1=CN(CC2=CC(=O)C(C)=CC2=O)C=C(C(=O)OC)C1c1cc(OC)ccc1OC and report
inactive

// repeat for COc1cc(-c2csc(NC(=O)Nc3ccc(Cl)c(C(F)(F)F)c3)n2)cc(OC)c1OC and report
inactive

// repeat for O=C1N[C@@H]2[C@@H](O)[C@@H](O)[C@H](O)C[C@H]2c2cc3c(c(O)c21)OCO3 and report
active

// repeat for C=C1C(=O)O[C@H]2[C@H]1CC/C(COC(=O)CCSSCCC(=O)OC/C1=C/CC[C@@]3(C)O[C@H]3[C@H]3OC(=O)C(=C)[C@@H]3CC1)=C\CC[C@@]1(C)O[C@@H]21 and report
inactive

// repeat for COc1ccc2c(c1)[n+]([O-])c(C#N)c(NC(=O)c1cccs1)[n+]2[O-] and report
inactive

// repeat for COc1ccc2c(c1)NC(=O)CN2c1nc(NC2CC2)nc2ccccc12 and report
active

// repeat for O=S(=O)(Nc1ccc(Cl)cc1)c1ccc(-c2cnc(C3CC3)o2)cc1 and report
active

// repeat for O=Cc1cn(Cc2ccc(Cl)cc2)c2ccccc12 and report
inactive

// repeat for Cc1cc(Oc2ccccc2)ccc1Nc1ncnc2ccc(-c3cnc(Cl)c(NS(C)(=O)=O)c3)cc12 and report
inactive

// repeat for COc1ccc(N2CCN(C(=O)c3ccc(C(F)(F)F)nc3Nc3cc(Cl)ccc3C)CC2)cc1 and report
inactive

// repeat for O=CN/N=C/c1ccc(Cl)c([N+](=O)[O-])c1 and report
inactive

// repeat for Oc1cccc(-c2nc(-c3n[nH]c(=S)n3-c3ccccc3)cc3c2[nH]c2ccccc23)c1 and report
inactive

// repeat for O=C(Nc1ccc([As]=[As]c2ccc(NC(=O)c3ccccc3)cc2)cc1)c1ccccc1 (stereo not given) and report
inactive

// repeat for Cc1ccc(NC2=N[C@]34CC(=O)CC[C@]3(C)[C@H]3CC[C@]5(C)C(=O)CC[C@H]5[C@@H]3C[C@@H]4S2)c(C)c1 and report
inactive

----------
tested on: LOX IMVI melanoma; experiment: NCI tumour cell line growth inhibition, 48 h
# TGI listing for each entry below

Molecule	TGI
O=S(/C=C/C=C/S(=O)(=O)c1ccccc1)c1ccccc1 (stereo unspecified)	> 3.89 µM
C[CH2][Pb]([CH2]C)([CH2]C)[O]C(=O)COc1ccccc1	3.22 µM
CC1=NN(C(=O)CC(=O)Nc2ccccc2)C(=O)C1N=Nc1ccc(C(=O)O)cc1 (stereo unspecified)	> 100 µM
CCCCOC(=O)C(=O)C(CC(CC)C(=O)c1ccccc1)C(=O)C=C(C)C (stereo unspecified)	> 100 µM
CC(=O)N1CCC(Nc2cc(C(=O)NC[C@H](O)CN3CCc4ccccc4C3)ncn2)CC1	> 100 µM

Request body: readout TGI, system LOX IMVI melanoma, query CC(=O)OC1Oc2ccccc2-c2oc(=O)c(-c3ccc(F)cc3)cc21 (stereo unspecified) . Return the value.
73.2 µM

// repeat for Cc1cc(Cc2cc(Cc3cc(C)cc(C(C)(C)C)c3O)c(C)cc2C)c(O)c(C(C)(C)C)c1 and report
41.9 µM

// repeat for CCOc1ccc2nc(NC(=O)C(=O)C(C#N)CC(C)(C)C=O)sc2c1 (stereo unspecified) and report
> 100 µM

----------
test system: HCC-2998 colon; assay: NCI tumour cell line growth inhibition, 48 h
Endpoint: GI50

Compound Structure	Value Measured
Cc1cc(Nc2ccc3c(c2)OCO3)c2cc3c(cc2n1)OCO3	2.33 µM
O=C(Nc1cccc(Cl)c1)Nc1nccs1	21.3 µM
C=C1C(=O)O[C@H]2[C@H]1CC/C(COC(=O)CCSSCCC(=O)OC/C1=C/CC[C@@]3(C)O[C@H]3[C@H]3OC(=O)C(=C)[C@@H]3CC1)=C\CC[C@@]1(C)O[C@@H]21	1.98 µM

Would you kindly look at the next entry?
I would be grateful if you could share the reported GI50 for COc1cc(-c2csc(NC(=O)Nc3ccc(Cl)c(C(F)(F)F)c3)n2)cc(OC)c1OC .
2.95 µM

----------
test system: NCI-H23 lung; experiment: NCI tumour cell line growth inhibition, 48 h
Endpoint: TGI

Compound	Study System	TGI
C/C(=N/OC(=O)c1cccc2c(=O)c3ccccc3[nH]c12)[C@H]1CC[C@H]2[C@@H]3CCC4=C/C(=N/OC(=O)c5cccc6c(=O)c7ccccc7[nH]c56)CC[C@]4(C)[C@H]3CC[C@]12C	NCI-H23 lung	29.9 µM
CC(C)(C)c1cc(OCc2nnc3sc(-c4ccc(Cl)cc4)nn23)c(Cl)cc1OCc1nnc2sc(-c3ccc(Cl)cc3)nn12	NCI-H23 lung	20.6 µM

I would be grateful if you could share the reported TGI for C[n+]1c2ccccc2c(Nc2ccc(N3CCCCC3)cc2)c2[nH]c3ccccc3c21 .
1.68 µM

// repeat for N#CC1=C(N)Oc2c(ccc3ccccc23)C1c1cccs1 (stereo unspecified) and report
12.7 µM

// repeat for COc1ccc(/C=c2/sc3n(c2=O)NC2(CCCCC2)NN=3)cc1 and report
> 100 µM

// repeat for Nc1ccc(I)cn1 and report
> 100 µM

// repeat for O=C(N/N=C/c1cc(Cl)cc(Cl)c1[O-])c1ccccc1O.O=C(N/N=C/c1cc(Cl)cc(Cl)c1[O-])c1ccccc1O.[Cl-].[Fe+3] and report
25.7 µM

----------
test system: SK-MEL-5 melanoma; test: NCI tumour cell line growth inhibition, 48 h
Endpoint: TGI

>>> df
                         compound_structure  value_measured
0               O=C(O)CCCNS(=O)(=O)c1ccccc1        > 100 µM
1  CC(C)(CN1CCCCC1)C(=O)/C=C/c1ccc(Cl)c(Cl)c1          3.5 µM
2            CSc1ncnc2c1cnn2Cc1cn(CCCCO)nn1        > 100 µM
3  CCCCCCCCCCn1cccc1/C=C/c1ccc(/C=C/c2cccn2CCCCCCCCCC)cc1        > 100 µM
4  COc1ccc(CCCNC(=O)Cc2cc(OC)c(OC)cc2CO)cc1OC        > 100 µM
5          O=C(CCc1ccc(O)c(O)c1)OCCc1ccccc1        > 100 µM
6         CN(/N=C(\C(=O)O)c1ccccc1)C1=NCCN1        > 100 µM
7  C=C1C(=O)O[C@H]2[C@H]1CC/C(COC(=O)/C=C\C(=O)NCc1ccc(Cn3c(=O)sn(CCCI)c3=O)cc1)=C\CC[C@@]1(C)O[C@@H]21         1.49 µM

Request body: readout TGI, system SK-MEL-5 melanoma, query Cn1ncc2c(Nc3ccc(Cl)cc3)c3ccccc3nc21 . Return the value.
26.7 µM

----------
test system: HCT-15 colon; test: NCI tumour cell line growth inhibition, 48 h
Endpoint: TGI

Sample records with TGI:
                                   compound  endpoint  value_measured
0          Cc1cc2c3ccccc3nc2c2cc[nH]c(C)c12       TGI         7.59 µM
1  Cc1cc(C)n(C(=O)CSc2nc3ccc(I)cc3c(=O)n2Cc2ccccc2)n1       TGI        > 100 µM
2       CC(=O)OCCOCn1c2c(c(=O)[nH]c1=O)CCC2       TGI        > 100 µM

I would be grateful if you could share the reported TGI for COc1ccc(OC)c2c1C(=O)C(=O)C(Cl)=C2O .
> 100 µM

// repeat for COc1cc(/C=C2\N=C(c3ccccc3)N(c3nc4ccc(Sc5ccccc5)cc4[nH]3)C2=O)ccc1O and report
> 100 µM

// repeat for CC(=O)OC1Oc2ccccc2-c2oc(=O)c(-c3ccc(F)cc3)cc21 (stereo unspecified) and report
> 100 µM
